Each entry below carries its recorded pull-down binding Z-score.
# Tested on: TO-3-N3-2 (biotin conjugate)
# Experiment Notes: pull-down binding Z-score (relative to library population); higher = stronger binding
# Condition Set: RNA library: Library-2
Give the figure by itself; no unit, no explanation.

// worked examples, pull-down binding Z-score included
CUGUUGGUACCAAUUUACCUUUACAGCUAGGUUUUUCUACAGGUGUUAACCUAGUUGCUGUACCUACAG : -0.514
UAAUCACAGGCCACAUUUCUGAAUA [hsa-mir-1295b] : -0.391
AGCUGGGUGGAGGCAGAGCU [hsa-mir-4291] : 1.23
UUAAUGCCUGUCUGUGUGGAAACUAAAGCCAUAGUUUCAACUAUACAGCGUAAAUAUAAGGGUAUUAA [DMSMaPseq_invitro_SARS-CoV-2_Motif_83] : 0.502
GGUUGGGAAAUUGUUAAAUUUAUCUCAACC : -0.155
GGUGCAAAGCCUGCCCGCCCC [hsa-mir-5090] : -0.136

Now consider a different sequence.
Request: Which pull-down binding Z-score value is on record for UGGGAUAUUGCCCG [IAV_invivo_PB2_1_Motif_20+IAV_invivo_PB2_1_Motif_20] ?
Response: -0.289
